- Target of assay: T1, GST–PPARα fusion protein (purified ligand binding domain of PPARα)
- T1 sequence (Q07869 whole entry, species assumed, looked up): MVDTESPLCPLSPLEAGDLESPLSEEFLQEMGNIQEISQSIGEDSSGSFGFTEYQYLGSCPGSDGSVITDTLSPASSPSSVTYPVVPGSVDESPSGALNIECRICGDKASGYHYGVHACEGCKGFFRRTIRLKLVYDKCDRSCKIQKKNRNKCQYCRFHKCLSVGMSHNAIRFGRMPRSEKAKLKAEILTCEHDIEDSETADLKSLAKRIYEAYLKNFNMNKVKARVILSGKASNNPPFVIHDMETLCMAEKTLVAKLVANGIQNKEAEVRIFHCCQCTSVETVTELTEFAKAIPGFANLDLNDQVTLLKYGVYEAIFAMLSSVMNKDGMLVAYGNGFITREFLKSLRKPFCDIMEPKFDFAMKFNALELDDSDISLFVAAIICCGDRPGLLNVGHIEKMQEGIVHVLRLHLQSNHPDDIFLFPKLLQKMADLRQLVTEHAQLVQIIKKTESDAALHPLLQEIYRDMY
- Assay method text: FRET or BRET; homogeneous TR-FRET as a1, 12-concentration dose–response of edaglitazone; the EC50 is of the compound; delta ratio in % of the reference compound at 10 μM (RO4899100 for PPARα, edaglitazone for PPARγ)
Where no end group is shown, it is not given here. The star is where a group is joined. Biotin = O=C1N[C@H]2[C@H](CS[C@H]2CCCCC(=O)*)N1; Ahx = NCCCCCC(=O)O
Reported property: EC50 of edaglitazone for recruitment (nM)

[[record]]
binder = "{Biotin-Ahx}-SRLHDSKGQTKLLQLLTTKSD (transcriptional intermediary factor 2 (TIF2), motif 1, residues 630-650; source: synthetic peptide (Jerini or Biosynthan, Berlin)) [TIF2_M1 cofactor peptide (transcriptional intermediary factor 2, motif 1)]"
meas_value = 945


(I) {Biotin-Ahx}-SPKKKENALLRYLLDKDDTK [TIF2_M3 cofactor peptide (transcriptional intermediary factor 2, motif 3)]
(II) {Biotin-Ahx}-STHGTSLKEKHKILHRLLQDS [TIF2_M2 cofactor peptide (transcriptional intermediary factor 2, motif 2)]
(III) {Biotin-Ahx}-DSKYSQTSHKLVQLLTTTAEQQLRH (source: synthetic peptide (Jerini or Biosynthan, Berlin)) [SRC1_M1 cofactor peptide (steroid receptor co-activator 1, motif 1)]
(IV) {Biotin-Ahx}-PKKENNALLRYLLDRDDPSDV (source: synthetic peptide (Jerini or Biosynthan, Berlin)) [RAC3_M3 cofactor peptide (receptor-associated co-activator 3, motif 3)]
Arrange items by their EC50 of edaglitazone for recruitment values in increasing order. I'd appreciate it if you listed the labels in the requested order. II, III, IV, I
